Quick reference: Emax of the listed items.
Target: Toll-like receptor 1/2 (Mus musculus) (UniProt Q9QUN7+Q9EPQ1)
Assay: Agonist activity at TLR1/TLR2 in wild type C57BL/6J mouse macrophages assessed as stimulation of TNF alpha release measured for 4 hrs by ELISA based assay relative to diprovocim-1
Format: cell-based
Conditions: Macrophage, filed as agonist

{"record_smiles": "CCCCCCNC(=O)[C@@H]1CN(C(=O)c2ccc(C(=O)N3C[C@@H](C(=O)N[C@H]4C[C@@H]4c4ccccc4)[C@H](C(=O)N[C@H]4C[C@@H]4c4ccccc4)C3)cc2)C[C@H]1C(=O)N[C@H]1C[C@@H]1c1ccccc1", "readout_unit": "%", "Emax": 150}
{"record_smiles": "CCCCCCCCCCNC(=O)[C@@H]1CN(C(=O)c2ccc(C(=O)N3C[C@@H](C(=O)N[C@H]4C[C@@H]4c4ccccc4)[C@H](C(=O)N[C@H]4C[C@@H]4c4ccccc4)C3)cc2)C[C@H]1C(=O)N[C@H]1C[C@@H]1c1ccccc1", "readout_unit": "%", "Emax": 260}
{"record_smiles": "CCCCCCCCCCCCCCNC(=O)[C@@H]1CN(C(=O)c2ccc(C(=O)N3C[C@@H](C(=O)N[C@H]4C[C@@H]4c4ccccc4)[C@H](C(=O)N[C@H]4C[C@@H]4c4ccccc4)C3)cc2)C[C@H]1C(=O)N[C@H]1C[C@@H]1c1ccccc1", "readout_unit": "%", "Emax": 100}
{"record_smiles": "CCNC(=O)[C@@H]1CN(C(=O)c2ccc(C(=O)N3C[C@@H](C(=O)N[C@H]4C[C@@H]4c4ccccc4)[C@H](C(=O)N[C@H]4C[C@@H]4c4ccccc4)C3)cc2)C[C@H]1C(=O)N[C@H]1C[C@@H]1c1ccccc1", "readout_unit": "%", "Emax": 130}
{"record_smiles": "CCCCCCCCCCCCCCCCNC(=O)[C@@H]1CN(C(=O)c2ccc(C(=O)N3C[C@@H](C(=O)N[C@H]4C[C@@H]4c4ccccc4)[C@H](C(=O)N[C@H]4C[C@@H]4c4ccccc4)C3)cc2)C[C@H]1C(=O)N[C@H]1C[C@@H]1c1ccccc1", "readout_unit": "%", "Emax": 75}
{"record_smiles": "CCCCCCCCCCCCNC(=O)[C@@H]1CN(C(=O)c2ccc(C(=O)N3C[C@@H](C(=O)N[C@H]4C[C@@H]4c4ccccc4)[C@H](C(=O)N[C@H]4C[C@@H]4c4ccccc4)C3)cc2)C[C@H]1C(=O)N[C@H]1C[C@@H]1c1ccccc1", "readout_unit": "%", "Emax": 100}
{"record_smiles": "CCCCCCCCNC(=O)[C@@H]1CN(C(=O)c2ccc(C(=O)N3C[C@@H](C(=O)N[C@H]4C[C@@H]4c4ccccc4)[C@H](C(=O)N[C@H]4C[C@@H]4c4ccccc4)C3)cc2)C[C@H]1C(=O)N[C@H]1C[C@@H]1c1ccccc1", "readout_unit": "%", "Emax": 240}
{"record_smiles": "CCCCNC(=O)[C@@H]1CN(C(=O)c2ccc(C(=O)N3C[C@@H](C(=O)N[C@H]4C[C@@H]4c4ccccc4)[C@H](C(=O)N[C@H]4C[C@@H]4c4ccccc4)C3)cc2)C[C@H]1C(=O)N[C@H]1C[C@@H]1c1ccccc1", "readout_unit": "%", "Emax": 150}
